Examples of compounds with documented pEC50 ± SEM follow.
# SYSTEM: C3aR (Homo sapiens, UniProt Q16581)
# Construct: peripheral blood mononuclear cells were isolated from buffy coat (obtained from Australian Red Cross Blood Service, Kelvin Grove); endogenous in cells; host or cells: primary human monocyte-derived macrophages (HMDM) differentiated from CD14+ monocytes of donor buffy coat
# EXPERIMENTAL_PROTOCOL: Calcium mobilization assay in HMDM (agonist/antagonist activity)
# Type: cell-based
# CONDITIONS_USED: Table 9; Ca^2+ mobilization, HMDM
Answer using only a numeral; do not append any unit.

CC[C@H](C)[C@H](NC(=O)c1cncc(Br)c1)c1nc(C(=O)N[C@@H](CCCNC(=N)N)C(=O)O)co1	7.76

Sample `CC(C)C[C@H](NC(=O)c1c[nH]c2ccccc12)c1nc(C(=O)N[C@@H](CCCNC(=N)N)C(=O)O)co1` ; pEC50 ± SEM observed: 8.15

Sample `CC[C@H](C)[C@H](NC(=O)c1ccccc1)c1nc(C(=O)N[C@@H](CCCNC(=N)N)C(=O)O)co1` ; pEC50 ± SEM observed: 5.30

Sample `CC[C@H](C)[C@H](NC(=O)Cc1c[nH]c2ccccc12)c1nc(C(=O)N[C@@H](CCCNC(=N)N)C(=O)O)co1` ; pEC50 ± SEM observed: 7.14

Sample CC[C@H](C)[C@H](NC(=O)C1CCCc2ccccc21)c1nc(C(=O)N[C@@H](CCCNC(=N)N)C(=O)O)co1 (stereo partly drawn) ; pEC50 ± SEM observed: 6.62

Sample `CC[C@H](C)[C@H](NC(=O)CCC(=O)c1ccc(-c2ccccc2)cc1)c1nc(C(=O)N[C@@H](CCCNC(=N)N)C(=O)O)co1` ; pEC50 ± SEM observed: 8.12

Sample `CC[C@H](C)[C@H](NC(=O)c1ccccc1Oc1ccccc1)c1nc(C(=O)N[C@@H](CCCNC(=N)N)C(=O)O)co1` ; pEC50 ± SEM observed: 7.26

Sample `CC[C@H](C)[C@H](NC(=O)C(c1ccccc1)c1ccccc1)c1nc(C(=O)N[C@@H](CCCNC(=N)N)C(=O)O)co1` ; pEC50 ± SEM observed: 5.25

Sample `CC[C@H](C)[C@H](NC(=O)OC(C)(C)C)c1nc(C(=O)N[C@@H](CCCNC(=N)N)C(=O)O)co1` ; pEC50 ± SEM observed: 7.57

---

# SYSTEM: C3aR (Homo sapiens, UniProt Q16581)
# Construct: peripheral blood mononuclear cells were isolated from buffy coat (obtained from Australian Red Cross Blood Service, Kelvin Grove); endogenous in cells; host or cells: primary human monocyte-derived macrophages (HMDM) differentiated from CD14+ monocytes of donor buffy coat
# Sequence (Q16581 1-482): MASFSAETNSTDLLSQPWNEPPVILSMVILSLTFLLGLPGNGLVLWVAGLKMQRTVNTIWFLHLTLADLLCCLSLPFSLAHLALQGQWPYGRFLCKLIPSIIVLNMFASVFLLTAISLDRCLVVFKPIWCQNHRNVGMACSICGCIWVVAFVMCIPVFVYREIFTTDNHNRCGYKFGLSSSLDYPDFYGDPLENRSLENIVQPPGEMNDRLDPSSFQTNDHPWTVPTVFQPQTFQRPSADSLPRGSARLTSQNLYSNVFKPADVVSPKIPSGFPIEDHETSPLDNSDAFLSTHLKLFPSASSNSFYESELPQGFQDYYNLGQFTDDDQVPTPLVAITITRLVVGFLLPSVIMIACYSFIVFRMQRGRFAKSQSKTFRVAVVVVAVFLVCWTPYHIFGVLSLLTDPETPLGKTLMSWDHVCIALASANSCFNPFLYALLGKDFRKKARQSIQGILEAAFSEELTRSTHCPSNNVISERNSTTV
# EXPERIMENTAL_PROTOCOL: Calcium mobilization assay in HMDM (agonist/antagonist activity)
# Assay type: cell-based
# CONDITIONS_USED: Table 10; HMDM; read-out: Agonist Activity EC50
pEC50: −log10 of the molar value.
MEASURED_PROPERTY: pEC50

Illustrative cases are given below, each with its answer.
N=C(N)NCCC[C@H](NC(=O)c1ccc(C(c2ccccc2)c2ccccc2)s1)C(=O)O [Compound 60]	< 4.00
N=C(N)NCCC[C@H](NC(=O)c1nc(C(c2ccccc2)c2ccccc2)[nH]c1-c1ccccc1)C(=O)O [Compound 62]	< 4.00

API: the following record is the query input.
Sample Cc1nc(C(c2ccccc2)c2ccccc2)[nH]c1C(=O)N[C@@H](CCCNC(=N)N)C(=O)O [Compound 64] ; pEC50 observed: 7.62

Each recorded value in this set is attributed to patent US9586914B2.
